Attribution: patent US10745401B2

Target: human 5-HT2A receptor (Homo sapiens (Human))
Sequence (P28223 whole entry): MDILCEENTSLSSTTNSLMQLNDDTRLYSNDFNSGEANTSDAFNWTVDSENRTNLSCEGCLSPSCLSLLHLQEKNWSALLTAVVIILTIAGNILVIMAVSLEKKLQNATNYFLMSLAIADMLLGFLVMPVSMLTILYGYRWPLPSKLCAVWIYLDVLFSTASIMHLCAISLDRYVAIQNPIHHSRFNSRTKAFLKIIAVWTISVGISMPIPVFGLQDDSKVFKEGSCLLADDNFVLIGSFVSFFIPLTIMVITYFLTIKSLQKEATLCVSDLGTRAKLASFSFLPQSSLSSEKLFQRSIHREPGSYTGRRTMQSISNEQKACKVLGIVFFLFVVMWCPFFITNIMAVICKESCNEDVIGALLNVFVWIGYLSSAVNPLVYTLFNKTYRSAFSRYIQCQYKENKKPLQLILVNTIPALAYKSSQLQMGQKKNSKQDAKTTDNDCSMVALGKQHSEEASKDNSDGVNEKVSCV
Test: Test 3: antagonist activity for human 5-HT2A receptor (aequorin luminescence, CHO-K1 cells)
Type: cell-based
Details: aequorin luminescence, CHO-K1 cells, 1 nmol/L 5-HT
Record form. Attribute: pIC50. Fill in for each entry.
Answers are plain numbers, as −log10 of the molar value.

molecule | pIC50
CC(C)c1ncc2c(n1)CCN(CCN1CCN(c3nsc4ccccc34)CC1)C2=O | 7.14
COc1ccc2c(C3CCN(CCN4CCc5cccnc5C4=O)CC3)noc2c1 | 6.57
O=C1c2ncccc2CCN1CCN1CCN(c2noc3ccc(F)cc23)CC1 | 6.38
Cn1ccc2c1CCCN(CCN1CCC(c3noc4ccccc34)C1)C2=O (stereo not drawn) | 6.51
O=C1c2ncoc2CCN1CCN1CCC(c2noc3ccccc23)CC1 | 6.63

Return reported pIC50 values for all items listed beneath this line.
1. Cc1nc2c(o1)C(=O)N(CCN1CCC(c3noc4ccccc34)CC1)CCC2
2. O=C1c2nc(Cl)ccc2CCN1CCN1CCC(c2noc3ccccc23)CC1
3. O=c1c2cccnc2ccn1CCN1CCN(c2noc3ccccc23)CC1
4. O=c1c2cnc(C(F)(F)F)cc2ccn1CCN1CCN(c2noc3ccccc23)CC1

Reply |
6.50
6.70
8.37
6.74

====

Biological target: human 5-HT1A receptor (Homo sapiens (Human))
Sequence (P08908 whole entry): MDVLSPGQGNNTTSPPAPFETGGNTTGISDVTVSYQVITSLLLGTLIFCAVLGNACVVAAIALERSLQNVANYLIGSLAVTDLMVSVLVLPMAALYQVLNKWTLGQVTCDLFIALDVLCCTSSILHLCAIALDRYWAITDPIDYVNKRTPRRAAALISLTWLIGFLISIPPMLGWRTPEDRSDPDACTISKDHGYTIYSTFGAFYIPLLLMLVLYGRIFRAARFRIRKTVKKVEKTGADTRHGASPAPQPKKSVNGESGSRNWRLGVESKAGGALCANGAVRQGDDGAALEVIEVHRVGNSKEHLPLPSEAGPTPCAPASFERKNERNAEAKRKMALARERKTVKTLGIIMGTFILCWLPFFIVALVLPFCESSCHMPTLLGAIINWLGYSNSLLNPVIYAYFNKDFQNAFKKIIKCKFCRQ
Test: Test 2: agonist activity for human 5-HT1A receptor ([35S]GTPγS binding)
Conditions: [35S]GTPγS binding; concentration at which half the activity of Emax was obtained
Just a reminder that ties go to not met: only EC50 strictly below 40 nM counts as met.

Below are worked cases with known answers.
compound | category
O=C1c2ncccc2CCN1CCN1CCN(c2noc3cc(F)ccc23)CC1 [Example 123] | not met
Cn1cnc2c1CCCN(CCN1CCC(c3noc4ccccc34)CC1)C2=O [Example 101] | not met
O=c1c2cncnc2ccn1CCN1CCC(c2noc3ccccc23)CC1 [Example 129] | not met

Now for another entry.
Ask | Quick check: does Cn1ccc2c1CCN(CCN1CCN(c3noc4ccccc34)CC1)C2=O [Example 170] have EC50 under 40 nM?
Reply | not met

====

Molecular target: human D2 receptor (Homo sapiens (Human))
Sequence (P14416 whole entry): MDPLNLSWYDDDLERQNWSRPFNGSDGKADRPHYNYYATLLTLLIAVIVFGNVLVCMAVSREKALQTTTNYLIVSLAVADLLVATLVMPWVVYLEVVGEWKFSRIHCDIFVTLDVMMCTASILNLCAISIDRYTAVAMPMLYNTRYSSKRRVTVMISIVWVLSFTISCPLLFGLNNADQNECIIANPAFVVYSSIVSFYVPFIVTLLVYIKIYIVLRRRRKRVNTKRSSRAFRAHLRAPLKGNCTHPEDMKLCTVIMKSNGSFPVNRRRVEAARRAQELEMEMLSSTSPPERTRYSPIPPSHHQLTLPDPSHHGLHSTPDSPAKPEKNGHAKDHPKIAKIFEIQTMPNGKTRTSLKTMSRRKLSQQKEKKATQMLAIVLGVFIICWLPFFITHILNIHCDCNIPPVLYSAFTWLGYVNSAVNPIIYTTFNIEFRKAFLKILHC
Test: Test 1: binding activity for human D2 receptor ([3H]Spiperone, CHO cell membrane fraction)
Details: human D2 receptor, [3H]Spiperone
Method: Test 1: Evaluation of Binding Activity for Human 5-HT1A Receptor, Human 5-HT2A Receptor, and Human D2 Receptor Binding affinity of the present compound for human 5-HT1A receptor, human 5-HT2A receptor, and human D2 receptor was measured by the following procedures. Each mixture was incubated at room temperature for 60 minutes. […] Radioactivity remaining on the filter was measured with a liquid scintillation counter (PerkinElmer, Inc.). Binding inhibition rate was calculated from the following formula. […]
Record form. Attribute: Ki. Fill in for each entry.
Give bare numbers, in nM.

Examples from the recorded data:
compound | target.or.system | quantitative.readout
Cc1nc2c(o1)CCCN(CCN1CCC(c3noc4ccccc34)CC1)C2=O [Example 157] | human D2 receptor (Homo sapiens (Human)) | 641
Cc1cc2c(cn1)C(=O)N(CCN1CCN(c3noc4ccccc34)CC1)CC2 [Example 3] | human D2 receptor (Homo sapiens (Human)) | 1260
Cn1cc2c(n1)CCN(CCN1CCN(c3nsc4ccccc34)CC1)C2=O [Example 36] | human D2 receptor (Homo sapiens (Human)) | 903
O=C1c2nc(Cl)ccc2CCN1CCN1CCC(c2noc3ccccc23)CC1 [Example 146] | human D2 receptor (Homo sapiens (Human)) | 772
O=C1c2cnn(C3CC3)c2CCN1CCN1CCC(c2noc3ccccc23)CC1 [Example 161] | human D2 receptor (Homo sapiens (Human)) | 216
[2H]C([2H])([2H])Oc1cc2c(cn1)C(=O)N(CCN1CCN(c3nsc4ccccc34)CC1)CC2([2H])[2H] [Example 107] | human D2 receptor (Homo sapiens (Human)) | 244

Consider now this further compound.
// Ki value for Cc1nn(C)c2c1C(=O)N(CCN1CCN(c3nsc4ccccc34)CC1)CC2 [Example 105] : 194

====

Record form. Attribute: log10 of IC50. Fill in for each entry.
Target: human 5-HT2A receptor (Homo sapiens (Human))
Test: Test 3: antagonist activity for human 5-HT2A receptor (aequorin luminescence, CHO-K1 cells)
Type: cell-based
Conditions: CHO-K1 cells, 1 nmol/L 5-HT
The figures below represent log10 of IC50, where IC50 is stated in nM.

compound | target.or.system | property.label | quantitative.readout
O=C1c2ncccc2CCC1CCN1CCN(c2noc3ccccc23)CC1 (stereo not shown) | human 5-HT2A receptor (Homo sapiens (Human)) | log10 of IC50 | 0.86

Return reported log10 of IC50 values for all items listed beneath this line.
1. Cc1cc2c(C3CCN(CCN4CCc5cccnc5C4=O)CC3)noc2cc1F
2. Cn1ncc2c1C(=O)N(CCN1CCN(c3nsc4ccccc34)CC1)CC2

Reply |
[2.81, 0.95]

====

Biological target: hERG channel (Homo sapiens (Human), UniProt Q12809)
Sequence (Q12809 whole entry): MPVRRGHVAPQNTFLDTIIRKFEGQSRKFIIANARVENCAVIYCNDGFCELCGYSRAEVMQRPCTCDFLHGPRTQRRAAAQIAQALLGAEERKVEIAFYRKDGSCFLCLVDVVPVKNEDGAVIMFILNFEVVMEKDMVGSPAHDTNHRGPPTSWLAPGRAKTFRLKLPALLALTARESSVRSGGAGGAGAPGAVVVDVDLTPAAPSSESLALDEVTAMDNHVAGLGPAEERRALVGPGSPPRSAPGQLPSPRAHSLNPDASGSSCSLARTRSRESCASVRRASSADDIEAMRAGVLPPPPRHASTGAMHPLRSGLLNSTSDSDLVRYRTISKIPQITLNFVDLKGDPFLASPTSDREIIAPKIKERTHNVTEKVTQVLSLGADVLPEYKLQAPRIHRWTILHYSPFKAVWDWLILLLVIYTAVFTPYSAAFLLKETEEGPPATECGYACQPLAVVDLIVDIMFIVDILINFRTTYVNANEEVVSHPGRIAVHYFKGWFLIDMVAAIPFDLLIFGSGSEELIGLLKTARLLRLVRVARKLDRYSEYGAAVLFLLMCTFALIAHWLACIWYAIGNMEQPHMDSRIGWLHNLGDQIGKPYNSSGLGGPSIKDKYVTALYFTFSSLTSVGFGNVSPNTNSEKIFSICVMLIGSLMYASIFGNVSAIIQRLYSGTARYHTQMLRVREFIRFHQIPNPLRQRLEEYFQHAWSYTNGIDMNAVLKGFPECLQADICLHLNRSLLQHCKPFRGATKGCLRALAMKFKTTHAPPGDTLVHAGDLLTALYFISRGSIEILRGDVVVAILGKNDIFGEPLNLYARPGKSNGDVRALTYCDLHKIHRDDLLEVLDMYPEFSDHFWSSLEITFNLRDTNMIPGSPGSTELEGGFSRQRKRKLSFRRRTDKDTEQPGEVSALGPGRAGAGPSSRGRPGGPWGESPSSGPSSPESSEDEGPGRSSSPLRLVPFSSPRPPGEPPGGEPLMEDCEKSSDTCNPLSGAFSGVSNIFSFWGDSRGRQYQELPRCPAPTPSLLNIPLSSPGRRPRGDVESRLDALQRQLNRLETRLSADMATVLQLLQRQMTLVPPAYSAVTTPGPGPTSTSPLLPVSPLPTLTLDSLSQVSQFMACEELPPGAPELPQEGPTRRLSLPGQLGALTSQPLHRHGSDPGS
Assay: Test 6-1: inhibitory activity for hERG channel (auto patch clamp, Qpatch)
Type: cell-based
Settings: whole cell auto patch clamp, hERG-CHO cells; read-out: hERG inhibition IC50
Just a reminder that ties go to criterion not met: only IC50 strictly below 4 µM counts as criterion met.

Below are worked cases with known answers.
molecule | category
COc1ncc2c(n1)CCN(CCN1CCN(c3nsc4ccccc34)CC1)C2=O | criterion met
O=c1c2cnccc2ccn1CCN1CCN(c2nsc3ccccc23)CC1 | criterion met
Cn1ccc2c1CCN(CCN1CCN(c3noc4ccccc34)CC1)C2=O | criterion not met
Cn1cc2c(n1)C(=O)N(CCN1CCN(c3nsc4ccccc34)CC1)CCC2 | criterion not met
O=C1c2ncccc2CCC1CCN1CCN(c2nsc3ccccc23)CC1 (stereo not shown) | criterion met
Cc1ccc2c(n1)C(=O)N(CCN1CCC(c3noc4ccccc34)CC1)CC2 | criterion met
Cn1nc2c(c1C(F)(F)F)C(=O)N(CCN1CCN(c3nsc4ccccc34)CC1)CC2 | criterion not met
Cn1cnc2c1C(=O)N(CCN1CCC(c3noc4ccccc34)CC1)CC2 | criterion not met

Now for another entry.
Ask | Quick check: does `CC(C)c1nc2c(o1)C(=O)N(CCN1CCN(c3nsc4ccccc34)CC1)CC2` have IC50 under 4 µM?
Reply | criterion met

====

Target: hERG channel (Homo sapiens (Human), UniProt Q12809)
Experiment: Test 6-1: inhibitory activity for hERG channel (auto patch clamp, Qpatch)
Type: cell-based
Conditions: whole cell auto patch clamp, hERG-CHO cells; read-out: hERG inhibition IC50
property.label: IC50 (µM)
Answers are plain numbers, in µM.

Examples from the recorded data:
compound | unit.annotation | quantitative.readout
O=C1c2ncccc2CCN1CCN1CCC(c2noc3ccccc23)CC1 | µM | 1.9
CC1CN(CCN2CCN(c3nsc4ccccc34)CC2)C(=O)c2ccn(C)c21 (stereo not drawn) | µM | 4.5
Cn1ncc2c1CCN(CCN1CCN(c3nsc4ccccc34)CC1)C2=O | µM | 7.8
O=C1c2cnc(OC3COC3)cc2CCN1CCN1CCN(c2nsc3ccccc23)CC1 | µM | 1.9
O=C1c2ncccc2CCN1CCN1CCC(c2noc3ccc(F)cc23)CC1 | µM | 2.4

Return reported IC50 values for all items listed beneath this line.
1. CCc1ncc2c(n1)CCN(CCN1CCN(c3nsc4ccccc34)CC1)C2=O
2. CC1CN(CCN2CCN(c3nsc4ccccc34)CC2)C(=O)c2cnn(C)c21 (stereo not drawn)

Reply |
6.6
4.6

====

Record form. Attribute: Metabolic stability in human hepatic microsome. Fill in for each entry.
Assay: Test 4: metabolic stability test in human hepatic microsome
Format: in vitro ADME
Details: 0.1 mg/mL microsome, 0.1 μmol/L compound, 37° C., 30 minutes
One number for each entry, in mL/min/mg protein.

compound | quantitative.readout
Cc1nc2c(o1)CCCN(CCN1CCN(c3nsc4ccccc34)CC1)C2=O | 0.043

Return reported Metabolic stability in human hepatic microsome values for all items listed beneath this line.
1. O=C1c2[nH]ncc2CCN1CCN1CCC(c2noc3ccccc23)CC1
2. O=C1c2ncccc2CCN1CCN1CCN(c2nsc3ccccc23)CC1
3. COc1ncc2c(n1)CCN(CCN1CCN(c3nsc4ccccc34)CC1)C2=O
4. COc1cc2c(cn1)C(=O)N(CCN1CCN(c3nsc4ccccc34)CC1)CC2

Reply |
1. 0.013
2. 0.041
3. 0.095
4. 0.22

Return reported Metabolic stability in human hepatic microsome values for all items listed beneath this line.
1. Cn1ncc2c1CCC(CCN1CCN(c3nsc4ccccc34)CC1)C2=O (stereo not drawn)
2. Cn1ncc2c1C(=O)N(CCN1CCC(c3noc4ccccc34)CC1)CCC2
3. O=C1c2ncccc2CCC1CCN1CCC(c2noc3ccccc23)CC1 (stereo not drawn)
4. COc1cc2c(cn1)CCN(CCN1CCN(c3nsc4ccccc34)CC1)C2=O
5. Cc1noc2c1C(=O)N(CCN1CCC(c3noc4ccccc34)CC1)CC2
6. O=C1c2ncccc2CCN1CCN1CCN(c2nsc3cc(F)ccc23)CC1
7. Cc1cc2c(cn1)C(=O)N(CCN1CCN(c3nsc4ccccc34)CC1)CC2
8. CC1CN(CCN2CCN(c3nsc4ccccc34)CC2)C(=O)c2cnn(C)c21 (stereo not drawn)

Reply |
1: 0.063; 2: 0.121; 3: 0.018; 4: 0.378; 5: 0.074; 6: 0.048; 7: 0.119; 8: 0.119

Return reported Metabolic stability in human hepatic microsome values for all items listed beneath this line.
1. Cn1c(F)cc2c1CCN(CCN1CCN(c3nsc4ccccc34)CC1)C2=O
2. O=C1c2cnccc2CCN1CCN1CCN(c2nsc3ccccc23)CC1
3. CC(C)c1ncc2c(=O)n(CCN3CCN(c4nsc5ccccc45)CC3)ccc2n1
4. O=c1c2cnccc2ccn1CCN1CCN(c2noc3ccccc23)CC1
5. O=C1c2cn(-c3ccccc3)nc2CCN1CCN1CCN(c2nsc3ccccc23)CC1
6. Cc1noc2c1C(=O)N(CCN1CCN(c3nsc4ccccc34)CC1)CCC2

Reply |
1. 0.459
2. 0.124
3. 0.791
4. 0.1
5. 0.924
6. 0.278

Return reported Metabolic stability in human hepatic microsome values for all items listed beneath this line.
1. O=C1c2cncnc2CCN1CCN1CCN(c2nsc3ccccc23)CC1
2. O=C1c2cn(C3CC3)nc2CCN1CCN1CCC(c2noc3ccccc23)CC1
3. Cc1c2c(nn1C)CCN(CCN1CCC(c3noc4ccccc34)CC1)C2=O
4. Cc1ccc2c(n1)C(=O)N(CCN1CCC(c3noc4ccccc34)CC1)CC2 [Example 186]
5. CC(C)c1ncc2c(n1)CCN(CCN1CCN(c3nsc4ccccc34)CC1)C2=O

Reply |
1: 0.092; 2: 0.018; 3: 0.017; 4: 0.095; 5: 0.469

// Metabolic stability in human hepatic microsome value for `CC(C)n1ncc2c1CCN(CCN1CCN(c3nsc4ccccc34)CC1)C2=O` : 0.113
